src = patent US6030940A

- MEASURED_TARGET: soluble uPAR (Homo sapiens, UniProt Q03405)
- Construct: Purified soluble uPAR was biotinylated
- Sequence (Q03405 23-305 limits assumed): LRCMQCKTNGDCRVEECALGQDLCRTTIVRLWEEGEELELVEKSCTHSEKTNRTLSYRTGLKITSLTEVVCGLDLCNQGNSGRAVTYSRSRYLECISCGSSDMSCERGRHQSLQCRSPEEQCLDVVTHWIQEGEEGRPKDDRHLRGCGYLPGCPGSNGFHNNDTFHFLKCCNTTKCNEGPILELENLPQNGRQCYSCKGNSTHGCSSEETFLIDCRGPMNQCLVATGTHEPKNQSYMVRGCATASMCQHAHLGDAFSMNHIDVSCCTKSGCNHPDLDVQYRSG
- ASSAY_PROCEDURE: 125I-ATF competition binding to immobilized soluble uPAR (Activity Assay)
- DETAILS: competition with iodinated human uPA ATF tracer (100-500 pM), 2h at room temperature, PBS/0.1% BSA, triplicate; read-out: IC50
Square brackets hold non-standard residues; d marks the D form. Peptide text beside a SMILES is read from it. 1Nal = N[C@@H](Cc1cccc2ccccc12)C(=O)O
EXPERIMENTAL_ENDPOINT: pIC50
Please note pIC50 is a logarithmic value: minus log10 of concentration in mol/L. Answer with that number alone.

The cases that follow already have their pIC50 on record.
CC(C)C[C@H](NC(=O)[C@H](Cc1ccc(O)cc1)NC(=O)[C@H](CCC(N)=O)NC(=O)[C@@H](CO)NC(=O)[C@H](Cc1ccccc1)NC(=O)[C@H](CC(N)=O)NC(=O)[C@@H](N)CC(C)C)C(=O)N[C@@H](Cc1cccc2ccccc12)C(=O)N[C@@H](Cc1ccc(O)cc1)C(=O)N[C@H](C(=O)O)[C@@H](C)O [SEQ ID NO: 7, LNFdSQYLnAYT] (H-LNF[dS]QYL[1Nal]YT-OH) = 7.48
CC(C)C[C@H](NC(=O)[C@H](Cc1ccc(O)cc1)NC(=O)[C@H](CCC(N)=O)NC(=O)CNC(=O)[C@H](Cc1ccccc1)NC(=O)[C@H](CC(N)=O)NC(=O)[C@@H](N)CC(C)C)C(=O)N[C@@H](Cc1c[nH]c2ccccc12)C(=O)N[C@@H](Cc1ccc(O)cc1)C(=O)N[C@H](C(=O)O)[C@@H](C)O [SEQ ID NO: 1, LNFGQYLWYT] (H-LNFGQYLWYT-OH) = 7.39

INPUT: Request the reported pIC50 associated with CC(C)C[C@H](NC(=O)[C@H](Cc1ccc(O)cc1)NC(=O)[C@H](CS)NC(=O)[C@@H](CO)NC(=O)[C@H](Cc1ccccc1)NC(=O)[C@H](CS)NC(=O)[C@@H](N)CC(C)C)C(=O)N[C@@H](Cc1cccc2ccccc12)C(=O)N[C@@H](Cc1ccc(O)cc1)C(=O)N[C@H](C(=O)O)[C@@H](C)O [SEQ ID NO: 10, LCFdSCYLnAYT] (H-LCF[dS]CYL[1Nal]YT-OH)
OUTPUT: 7.10

###

- MEASURED_TARGET: soluble uPAR (Homo sapiens)
- Construct: Purified soluble uPAR was biotinylated
- ASSAY_PROCEDURE: 125I-ATF competition binding to immobilized soluble uPAR (Activity Assay)
- DETAILS: competition with iodinated human uPA ATF tracer (100-500 pM), 2h at room temperature, PBS/0.1% BSA, triplicate; read-out: IC50
Square brackets hold non-standard residues; d marks the D form. Peptide text beside a SMILES is read from it.
EXPERIMENTAL_ENDPOINT: IC50 (nM)
The reply should contain only the number, in nM.

INPUT: Reported IC50, compound CC(C)C[C@H](NC(=O)[C@H](Cc1ccc(O)cc1)NC(=O)[C@H](CS)NC(=O)[C@@H](CO)NC(=O)[C@H](Cc1ccccc1)NC(=O)[C@H](CC(N)=O)NC(=O)[C@@H](N)CC(C)C)C(=O)N[C@@H](Cc1c[nH]c2ccccc12)C(=O)N[C@@H](CS)C(=O)N[C@H](C(=O)O)[C@@H](C)O [SEQ ID NO: 11, LNFdSCYLWCT] (H-LNF[dS]CYLWCT-OH) : ____
OUTPUT: 225
